Target: human glucagon receptor (human, UniProt P47871 26-477)
Sequence (P47871 26-477): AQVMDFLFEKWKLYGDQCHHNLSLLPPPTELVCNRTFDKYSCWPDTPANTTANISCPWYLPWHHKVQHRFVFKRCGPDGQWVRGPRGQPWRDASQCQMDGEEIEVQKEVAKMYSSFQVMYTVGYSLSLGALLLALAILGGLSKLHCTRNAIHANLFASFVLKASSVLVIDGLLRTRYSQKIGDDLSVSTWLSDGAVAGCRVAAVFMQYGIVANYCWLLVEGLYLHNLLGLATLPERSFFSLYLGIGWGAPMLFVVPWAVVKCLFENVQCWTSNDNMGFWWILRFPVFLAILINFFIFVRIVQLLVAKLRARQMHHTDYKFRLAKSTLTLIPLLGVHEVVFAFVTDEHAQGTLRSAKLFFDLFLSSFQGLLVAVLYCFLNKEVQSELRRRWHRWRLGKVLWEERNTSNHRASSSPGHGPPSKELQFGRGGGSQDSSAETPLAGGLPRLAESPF
Assay: cell-based or functional assay
Where no end group is shown, it is not given here. [ ]: non-standard residue; d: D form. Aib = CC(C)(N)C(=O)O
TEST_READOUT: hGcgR CRE Luc EC50 (pM)
Remember to follow the number with its unit.

Take a look at these entries with their results.
[[record]]
binder = "Y[Aib]QGTFTSDYSIYKDKQAA[Aib]EFVNWLLAGGPSSGAPPPS-NH2 (not fully specified (residue 14)) [Compound No. 63]"
result = "1110 pM"

[[record]]
binder = "Y[Aib]QGTFTSDYSIYLDKQAA[Aib]EFVNWLLAGGPSSGKPPPS-NH2 (not fully specified (residue 35)) [Compound No. 66]"
result = "1020 pM"

[[record]]
binder = "Y[Aib]QGTFTSDYSIYLDKQAAKEFVNWLLAGGPSSGAPPPS-NH2 (not fully specified (residue 20); printed as Y-Aib-QGTFTSDYSIYLDKQAA-K[2-[2-[2-[[2-[2-[2-[[(4S)-4-carboxy-4-(17-carboxyheptadecanoylamino)butanoyl]amino]ethoxy]ethoxy]acetyl]amino]ethoxy]ethoxy]acetyl]-EFVNWLLAGGPSSGAPPPS-NH2) [Compound No. 60]"
result = "182 pM"


Which value of hGcgR CRE Luc EC50 (pM) has been reported for Y[Aib]QGTFTSDYSIYLDKQAA[Aib]KFVNWLLAGGPSSGAPPPS-NH2 (not fully specified (residue 21); printed as Y-Aib-QGTFTSDYSIYLDKQAA-Aib-K[2-[2-[2-[[2-[2-[2-[[(4S)-4-carboxy-4-(17-carboxyheptadecanoylamino)butanoyl]amino]ethoxy]ethoxy]acetyl]amino]ethoxy]ethoxy]acetyl]-FVNWLLAGGPSSGAPPPS-NH2) [Compound No. 3] in the records?
34.7 pM

Entry Y[Aib]QGTFTSDYSIYLDKQAA[Aib]EFVNWLLAGGPSSGAPPPS-NH2 (not fully specified (residue 16); printed as Y-Aib-QGTFTSDYSIYLD-K[2-[2-[2-[[2-[2-[2-[[(4S)-4-carboxy-4-(17-carboxyheptadecanoylamino)butanoyl]amino]ethoxy]ethoxy]acetyl]amino]ethoxy]ethoxy]acetyl]-QAA-Aib-EFVNWLLAGGPSSGAPPPS-NH2) [Compound No. 1] please
157 pM

Entry to check: Y[Aib]QGTFTSDYSIKLDKQAA[Aib]EFVNWLLAGGPSSGAPPPS-NH2 (not fully specified (residue 13)) [Compound No. 62]
891 pM

This collection of values is drawn from patent US20230391845A1.
